Reference source for all entries: ChEMBL document CHEMBL4002595

testSummary: Stability in mouse plasma assessed as compound remaining at 1 uM after 24 hrs by HPLC-ESI-MS/MS analysis
Assay type: ADME, cell-free
measurementParameters: read-out: Stability
quantityMeasured: remaining at 24 h, 1 µM (%)
Give a bare numeral; the unit % is implied.

structureSmilesString	valueUnits	remaining at 24 h, 1 µM
C[C@H](CCC(=O)N[C@H](CC(=O)O)Cc1c[nH]c2ccccc12)[C@H]1CC[C@H]2[C@@H]3CC[C@@H]4C/C(=N/O)CC[C@]4(C)[C@H]3CC[C@]12C	%	93.7

Let us examine a further case.
### Prompt Can you look up the measured remaining at 24 h, 1 µM of C[C@H](CCC(=O)N[C@H](CC(=O)O)Cc1c[nH]c2ccccc12)[C@H]1CC[C@H]2[C@@H]3CC[C@@H]4C[C@H](OC(N)=O)CC[C@]4(C)[C@H]3CC[C@]12C for me?
### Response 98.2
